- system-under-test: human H1 histamine receptors (HRH1) (Homo sapiens)
- Sequence (P35367 whole entry): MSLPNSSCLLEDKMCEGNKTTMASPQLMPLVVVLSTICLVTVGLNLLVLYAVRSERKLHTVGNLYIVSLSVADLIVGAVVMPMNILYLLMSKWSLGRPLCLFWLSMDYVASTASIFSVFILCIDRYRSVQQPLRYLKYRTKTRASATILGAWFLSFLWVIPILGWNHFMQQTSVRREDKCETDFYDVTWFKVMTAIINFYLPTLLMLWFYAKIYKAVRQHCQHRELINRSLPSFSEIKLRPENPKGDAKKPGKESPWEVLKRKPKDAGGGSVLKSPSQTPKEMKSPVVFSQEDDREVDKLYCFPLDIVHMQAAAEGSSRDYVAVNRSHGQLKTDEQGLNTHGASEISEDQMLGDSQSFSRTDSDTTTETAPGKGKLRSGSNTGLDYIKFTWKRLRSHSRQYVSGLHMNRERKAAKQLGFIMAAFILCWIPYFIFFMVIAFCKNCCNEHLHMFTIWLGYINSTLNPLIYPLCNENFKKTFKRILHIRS
- run-description: HRH1 antagonist calcium flux assay (Fluo-8, FLIPR TETRA) in CHO-K1 cells
measurement-type: IC50 (nM)
Kindly answer with a numeric value in nM, unit omitted.

Record CN(C)CCO[Si](C)(c1ccccc1)c1ccccc1 [Q-Ant #8] / human H1 histamine receptors (HRH1) (Homo sapiens), IC50 recorded as 33.5

----------
- run-description: in vitro
- recorded-conditions: African green monkey, Cytotoxicity (CC50)
measurement-type: CC50 (µg/mL)
Only the number, expressed in µg/mL, is required.

Note to self: CC50 recorded for CN(C)CCO[Si](C)(c1ccccc1)c1ccccc1 was 613

Origin of the recorded values: patent US20240082277A1
